Measured values drawn from PubChem BioAssay for this set.

- study.system: Nuclear receptor coactivator 3 (Homo sapiens)
- experiment.description: SRC3 coactivator transcriptional activity inhibitors, confirmation, cell-based, luminescence, quadruplicate (AID 588792)
- condition: HEK293 GAL4-SRC3 luciferase reporter, at 3.6 µM
Activity calls are given as the source filed them.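 Rule for the calls: active = mean inhibition over 43.08%, the solvent-only control mean plus 3 SD; inactive = the rest.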
Possible outcomes: active, inactive

[[record]]
compound = "Cc1c(/C(O)=C2/C(=O)C(=O)N(CCN3CCOCC3)C2c2ccco2)cnn1-c1ccccc1 (stereo not given)"
qualitative_label = "inactive"

[[record]]
compound = "NC(=S)NN=C1c2cc(OCCN3CCOCC3)ccc2-c2ccc(OCCN3CCOCC3)cc21"
qualitative_label = "active"

[[record]]
compound = "c1cc2c(cc1C1=NNC(=NC3CC3)SC1)OCCO2"
qualitative_label = "active"

[[record]]
compound = "COCC(=O)OC1CCn2c1nc1c2C(=O)C(C)=C(NC(C)=O)C1=O (stereo not given)"
qualitative_label = "active"

[[record]]
compound = "CCOC(=O)CC(=O)CSc1nccc(-c2cccnc2)n1"
qualitative_label = "inactive"

[[record]]
compound = "CN(Cc1cnc2nc(N)nc(N)c2n1)c1ccc(C(=O)NC(CCC(=O)O)C(=O)O)cc1 (stereo not given)"
qualitative_label = "active"

[[record]]
compound = "CC(C)(C)c1ccc(C2CC2C(=O)N/N=C\\c2ccc[nH]2)cc1 (stereo not given)"
qualitative_label = "inactive"

[[record]]
compound = "Cn1nccc1C(=O)NC1CCCc2c1cnn2-c1ccc(C(C)(C)C)cc1 (stereo not given)"
qualitative_label = "inactive"

[[record]]
compound = "Cc1ccc(NC2=C/C(=N/S(=O)(=O)c3cccs3)c3ccccc3C2=O)cc1"
qualitative_label = "active"

[[record]]
compound = "O=C(CSC1=NCCS1)Nc1ccnc2ccccc12"
qualitative_label = "inactive"

[[record]]
compound = "COc1cccc(/C=N\\NC(=O)c2ccc(Cn3cc(Br)c([N+](=O)[O-])n3)o2)c1O"
qualitative_label = "inactive"

[[record]]
compound = "Cc1ccc(C(=O)O/N=C(\\N)c2ccccc2)c(Cl)c1"
qualitative_label = "inactive"

[[record]]
compound = "Cc1cc(C(=O)COC(=O)C2=COCCO2)c(C)n1-c1ccccc1"
qualitative_label = "inactive"

[[record]]
compound = "Cc1cc(OCc2nc(N)nc(N)c2-c2ccc(Cl)c(Cl)c2)ccc1[N+](=O)[O-]"
qualitative_label = "active"

[[record]]
compound = "COCCN(C(=O)CCl)C(C(=O)NC1CCCCC1)c1ccccc1C (stereo not given)"
qualitative_label = "active"

[[record]]
compound = "O=C(Nc1nc(-c2ccccn2)cs1)c1ccc(F)c(S(=O)(=O)N2CCOCC2)c1"
qualitative_label = "inactive"

[[record]]
compound = "CCCCCCCNC(=O)C1(CC2CC(c3ccc(Cl)cc3)=NO2)CCN(C(=O)c2cc(OCC)c(OCC)c(OCC)c2)CC1 (stereo not given)"
qualitative_label = "inactive"

[[record]]
compound = "O=C(N/N=C/c1cc(Br)ccc1O)c1ccncc1"
qualitative_label = "inactive"

[[record]]
compound = "CC1(C)CC2(CC(c3ccccc3F)c3cc(Cl)c(O)cc3O2)NC(=S)N1 (stereo not given)"
qualitative_label = "inactive"

[[record]]
compound = "O=c1cc(CCl)nc(Cc2c(Cl)cccc2Cl)[nH]1"
qualitative_label = "inactive"

[[record]]
compound = "Cc1ccccc1NC(=O)C(=Cc1ccc(C(=O)O)cc1)C(=O)Nc1ccccc1C"
qualitative_label = "inactive"

[[record]]
compound = "CCN(CC)c1ccc(/C=C/c2ccc3ccc(OC)cc3[n+]2CC)cc1"
qualitative_label = "active"

[[record]]
compound = "Nc1ncccc1C(=O)OCC(=O)N1CCN(S(=O)(=O)c2ccc(Cl)cc2)CC1"
qualitative_label = "inactive"

[[record]]
compound = "COc1ccc2[nH]c(C(=O)N/N=C/c3ccc(O)cc3O)cc2c1"
qualitative_label = "active"

[[record]]
compound = "O=c1[nH]c(=O)n(C2C[C@H](O)[C@@H](CO)O2)cc1C(F)(F)F (stereo not given in full)"
qualitative_label = "active"

